Target: Platelet-activating factor acetylhydrolase IB subunit alpha2 (Homo sapiens)
Assay: PAFAH1B2 enzyme inhibitors, primary screen, biochemical, fluorescence polarization, human (AID 492953);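 further: 0% = enzyme with DMSO and 100% = wells lacking PAFAH1B2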
Conditions: recombinant PAFAH1B2, FP-rhodamine activity probe, at 3.39 µM
In all, about 340,000 compounds went through this assay and about 4,200 (1.2%) were called active.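 How the source made its calls: active means inhibition above the mean of all tested compounds plus 3 SD (cut at about 24% in these data); inactive means the rest.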 The full list was thinned out, with actives kept by preference.
Labels: 1 (yes) for active, 0 (no) for inactive

compound="CCCCNC(=O)N(O)C1N(/N=C/c2ccc(N(C)C)cc2)C(=S)SC1(C)C (configuration not stated)" classification="1 (yes)"
compound=O=C(Nc1ccccc1)N1CCC(C(=O)N2CCN(Cc3ccccc3)CC2)CC1 classification="0 (no)"
compound=CC(=O)Oc1ccc2c(c1)C(=O)c1ccccc1C2=O classification="0 (no)"
compound="CC(=O)OCC(=O)C1(O)CCC2C3CC(C)C4=CC(=O)CCC4(C)C3C(O)CC21C (configuration not stated)" classification="0 (no)"
compound=Cc1cccc(OCCNC(=O)CSc2ccc(C(F)(F)F)cc2[N+](=O)[O-])c1 classification="1 (yes)"
compound=Oc1ccc(N=Nc2nccs2)c(O)c1 classification="1 (yes)"
compound=CC(=O)N(C1=C(Cl)C(=O)c2ccccc2C1=O)c1ccc(C(=O)O)cc1 classification="0 (no)"
compound=NS(=O)(=O)c1ccc(CCNC(=O)c2ccc(Cl)cc2[N+](=O)[O-])cc1 classification="0 (no)"
compound=Cn1cnnc1SCC(=O)NNC(=O)COc1ccc(Br)cc1 classification="0 (no)"
compound=N#Cc1c(-c2ccc(F)cc2)nc(-c2ccccc2)[nH]c1=O classification="0 (no)"
compound=C=CCNC(=O)CCCOc1cccc(C)c1 classification="0 (no)"
compound="CCC(C)N1C(=S)SC(C)(C)C1N(O)C(=O)NC1CCCCC1 (configuration not stated)" classification="0 (no)"
compound=Cn1cccc1C(=O)NNC(=O)COc1ccc(Br)cc1 classification="0 (no)"
compound=O=C(Nc1nccs1)c1cc(S(=O)(=O)N2CCOCC2)c(Cl)cc1Cl classification="0 (no)"
compound=Cc1ccsc1C(=O)NNC(=O)COc1ccc(Br)cc1 classification="1 (yes)"
compound=O=C(COc1cccc2c1CCNC2=O)NC1CCCCC1 classification="0 (no)"
compound=COc1cc(CNc2ncn[nH]2)ccc1OCc1ccccc1C classification="0 (no)"

###

Catalogue of inhibition readings, one per entry.
Molecular target: Platelet-activating factor acetylhydrolase IB subunit alpha2 (Homo sapiens) (UniProt P68402)
Sequence (P68402 whole entry, looked up): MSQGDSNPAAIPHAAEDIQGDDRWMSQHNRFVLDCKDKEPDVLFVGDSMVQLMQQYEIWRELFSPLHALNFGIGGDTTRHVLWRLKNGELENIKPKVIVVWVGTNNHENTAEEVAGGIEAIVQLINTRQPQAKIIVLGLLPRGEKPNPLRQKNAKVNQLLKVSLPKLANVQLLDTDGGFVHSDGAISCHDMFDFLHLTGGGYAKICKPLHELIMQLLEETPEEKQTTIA
Experiment: PAFAH1B2 enzyme inhibitors, primary screen, biochemical, fluorescence polarization, human (AID 492953);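 further: 0% = enzyme with DMSO and 100% = wells lacking PAFAH1B2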
Conditions: recombinant PAFAH1B2, FP-rhodamine activity probe, at 3.39 µM, active compounds read high
About 4,200 (1.2%) of roughly 340,000 compounds were called active. For the sample, actives were picked, then their nearest neighbours and some compounds at random.
recorded.endpoint: inhibition (%)

smiles_repr=O=C(NCCc1ccccc1)c1c[nH]c2ccc(F)cc2c1=O unit_annotation=% endpoint_value=3.36
smiles_repr=Cc1ccc(S(=O)(=O)/N=C(/NC(=S)Nc2c(C)n(C)n(-c3ccccc3)c2=O)c2ccccc2)cc1 unit_annotation=% endpoint_value=9.33
smiles_repr=CCn1c(SCC(=O)Nc2cccc(F)c2)nnc1-c1cc2cc(Br)ccc2o1 unit_annotation=% endpoint_value=-4.23
smiles_repr=CN(C)c1ccc(S(=O)(=O)NCC(=O)NCC2CCCCC2)cc1[N+](=O)[O-] unit_annotation=% endpoint_value=8.33

###

Target: Platelet-activating factor acetylhydrolase IB subunit alpha2 (Homo sapiens) (UniProt P68402)
Assay: PAFAH1B2 enzyme inhibitors, primary screen, biochemical, fluorescence polarization, human (AID 492953);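 further: 0% = enzyme with DMSO and 100% = wells lacking PAFAH1B2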
Conditions: recombinant PAFAH1B2, FP-rhodamine activity probe, at 3.39 µM, active compounds read high
Screen size: about 340,000 compounds; about 4,200 (1.2%) were called active. The sample as a whole holds a higher share of actives than the screen did.
recorded.endpoint: inhibition (%)

smiles_repr=O=C(C1CC1)N1CCN=C1SCc1ccc(Cl)cc1 unit_annotation=% endpoint_value=10.5
smiles_repr=O=C(NNC(=O)c1ccc2ccccc2c1)c1ccc(Cl)cc1 unit_annotation=% endpoint_value=3.28
smiles_repr=O=C(CCS(=O)(=O)c1ccccc1)NC1CCCC1 unit_annotation=% endpoint_value=5.22

###

Catalogue of inhibition readings, one per entry.
Molecular target: Platelet-activating factor acetylhydrolase IB subunit alpha2 (Homo sapiens) (UniProt P68402)
Assay: PAFAH1B2 enzyme inhibitors, primary screen, biochemical, fluorescence polarization, human (AID 492953);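 further: 0% = enzyme with DMSO and 100% = wells lacking PAFAH1B2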
Conditions: recombinant PAFAH1B2, FP-rhodamine activity probe, at 3.39 µM, active compounds read high
Hit rate of the full screen: of about 340,000 compounds, about 4,200 (1.2%) were called active. The sample as a whole holds a higher share of actives than the screen did.
recorded.endpoint: inhibition (%)

compound=COc1ccc(Cl)cc1NC(=O)CCS(=O)(=O)c1ccc(Br)cc1 endpoint_value=10
compound="CC(NC(=S)Nc1ccc(S(N)(=O)=O)cc1)c1ccc2c(c1)OCO2 (centres undefined)" endpoint_value=27.8
compound=Cc1ccc2c(O)c(Cc3ccccc3)c(=O)[nH]c2n1 endpoint_value=0.81
compound=COc1cc2c(cc1OC)C(Cc1cc(OC)c(OC)cc1[N+](=O)[O-])=NCC2 endpoint_value=0.33
compound=COC(=O)c1sccc1NS(=O)(=O)c1ccc(F)cc1F endpoint_value=0.87
compound=CC/C(=C(/c1ccccc1)c1ccc(OCC[N+](C)(C)C)cc1)c1ccccc1 endpoint_value=8.4
compound=COc1cccc(C(=O)Nc2nnc(S(=O)(=O)N(C)c3ccccc3)s2)c1 endpoint_value=-2.38
compound=O=C(c1ccc2c(c1)C(=O)N(Cc1ccncc1)C2=O)N1CCN(S(=O)(=O)c2ccc(OC(F)(F)F)cc2)CC1 endpoint_value=5.75
compound=CSc1ccc(S(=O)(=O)N2CCC(C(=O)NCCc3ccccc3)CC2)cc1 endpoint_value=0.35
compound=O=C(c1cccc(S(=O)(=O)N2CCCCCC2)c1)N1CCN(Cc2ccccc2)CC1 endpoint_value=0.99
compound="CCc1ccc(NC(=O)NC(C)c2ccc3c(c2)OCO3)cc1 (centres undefined)" endpoint_value=4.07
compound=O=C1CCC/C=C/C[C@@H](CC(=O)N(CCO)Cc2ccccc2)C(=O)NC[C@H](c2ccccc2)O1 endpoint_value=-0.45
compound=Cc1ccc(S(=O)(=O)NCCCn2ccnc2)cc1C(=O)NC(C)C endpoint_value=2.08
compound="CCN(CC)CCCC(C)n1c2nc(=O)[nH]c(=O)c-2nc2cc(Cl)ccc21 (centres undefined)" endpoint_value=26
compound=O=C(Cc1c(O)c2ccccc2[nH]c1=O)NCc1ccccc1 endpoint_value=2.81
compound=O=C(Cc1ccccc1)Nc1cccc(NC(=O)c2ccccc2)c1 endpoint_value=3.28
compound=Cc1ccc(O)c(CNc2nc3ccccc3[nH]2)c1 endpoint_value=0.09
compound=Cc1ccc(-c2cc(=O)[nH]c(NCc3ccccc3)n2)cc1 endpoint_value=24.5
compound=O=C(OCC(=O)N1CCN(C(=O)c2ccco2)CC1)c1ccc(Cl)c(Cl)c1 endpoint_value=2.92

###

Target: Platelet-activating factor acetylhydrolase IB subunit alpha2 (Homo sapiens)
Experiment: PAFAH1B2 enzyme inhibitors, primary screen, biochemical, fluorescence polarization, human (AID 492953);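 further: 0% = enzyme with DMSO and 100% = wells lacking PAFAH1B2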
Conditions: recombinant PAFAH1B2, FP-rhodamine activity probe, at 3.39 µM
Hit rate of the full screen: of about 340,000 compounds, about 4,200 (1.2%) were called active.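 The calls were made as follows: active = inhibition above the mean of all tested compounds plus 3 SD (cut at about 24% in these data); inactive = the rest.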 Only a selection was taken, and actives are over-represented in it overall.
Labels: y (active), n (inactive)

molecule="CCCc1[nH]nc2c1C(C1CC=CCC1)C(C#N)=C(N)O2 (stereo not given)" assayed_system="Platelet-activating factor acetylhydrolase IB subunit alpha2 (Homo sapiens)" classification=y
molecule="CC1=C(C(=O)OCC2CCCCC2)C(c2ccc(F)cc2)NC(=O)N1 (stereo not given)" assayed_system="Platelet-activating factor acetylhydrolase IB subunit alpha2 (Homo sapiens)" classification=n
molecule=CCc1nnc(NC(=O)c2cccc(S(=O)(=O)N(C)c3ccc(OC)cc3)c2)s1 assayed_system="Platelet-activating factor acetylhydrolase IB subunit alpha2 (Homo sapiens)" classification=n
molecule=CS(=O)(=O)Nc1ccccc1N=C(c1ccccc1)c1ccccc1 assayed_system="Platelet-activating factor acetylhydrolase IB subunit alpha2 (Homo sapiens)" classification=n
molecule=CCOC(=O)c1c(C)nc2c(c1C)c(=O)oc1ccccc12 assayed_system="Platelet-activating factor acetylhydrolase IB subunit alpha2 (Homo sapiens)" classification=n
molecule="Cc1ccc(N(C(=O)c2ccc(CN3CCOCC3)o2)C(C(=O)NCCC(C)C)c2cccs2)c(C)c1 (stereo not given)" assayed_system="Platelet-activating factor acetylhydrolase IB subunit alpha2 (Homo sapiens)" classification=n
molecule="CCCc1[nH]nc2c1C(c1ccc(Br)s1)C(C#N)=C(N)O2 (stereo not given)" assayed_system="Platelet-activating factor acetylhydrolase IB subunit alpha2 (Homo sapiens)" classification=n
molecule=Cc1ccc(NS(=O)(=O)c2ccc3c(c2)NC(=O)CO3)cc1 assayed_system="Platelet-activating factor acetylhydrolase IB subunit alpha2 (Homo sapiens)" classification=n
molecule=Cn1c(Cn2nnc3ccccc32)nnc1SCC(=O)c1ccccc1F assayed_system="Platelet-activating factor acetylhydrolase IB subunit alpha2 (Homo sapiens)" classification=n
molecule=NS(=O)(=O)c1ccccc1NC(=O)c1c(O)c2ccccc2[nH]c1=O assayed_system="Platelet-activating factor acetylhydrolase IB subunit alpha2 (Homo sapiens)" classification=n
